# target-of-assay: UniProtKB Q9R1U7
# Sequence (Q9R1U7 whole entry): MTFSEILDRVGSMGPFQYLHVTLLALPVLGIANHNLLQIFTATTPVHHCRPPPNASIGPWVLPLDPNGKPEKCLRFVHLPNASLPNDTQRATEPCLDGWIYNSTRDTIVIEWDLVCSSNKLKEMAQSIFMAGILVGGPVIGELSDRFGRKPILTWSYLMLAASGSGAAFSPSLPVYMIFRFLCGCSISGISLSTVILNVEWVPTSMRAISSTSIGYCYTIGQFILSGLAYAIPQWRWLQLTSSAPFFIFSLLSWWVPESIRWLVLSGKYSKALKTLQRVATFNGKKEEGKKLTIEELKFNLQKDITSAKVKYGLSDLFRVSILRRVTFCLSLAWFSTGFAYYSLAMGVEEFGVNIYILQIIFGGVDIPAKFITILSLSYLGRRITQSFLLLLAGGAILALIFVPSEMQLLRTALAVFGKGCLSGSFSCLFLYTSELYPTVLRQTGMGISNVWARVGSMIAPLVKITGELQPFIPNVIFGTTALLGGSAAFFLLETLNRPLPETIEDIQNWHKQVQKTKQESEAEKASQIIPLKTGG
# measurement-description: TP_TRANSPORTER: uptake in Xenopus laevis oocytes
# Type: functional, cell-based, Oocyte
experimental-endpoint: Km (µM)
Quick note: give the figure in µM, leave out the unit.

The reported Km of the molecule C[C@@H]1Cc2c(Cl)cc(C(=O)N[C@@H](Cc3ccccc3)C(=O)O)c(O)c2C(=O)O1 [3R14S-OCHRATOXIN A] was 0.739

Values from ChEMBL document CHEMBL2073979
